Tested on: U2OS
Assay: Multiplex assay against U2OS
Type: toxicity, cell-based
Conditions: human, 48 h, 10 µM, compound concentration 10 uM, replicate 2
value-type: Population Healthy Nuclei (%)

molecule	value-type	display-unit	assay-value
Cc1ccccc1C(c1ccccc1C)N1C2CCC1CC(O)(c1ccccc1)C2 (stereo not given)	Population Healthy Nuclei (%)	%	68
CCc1ccc(OCc2ccccc2C(=O)Nc2ccc3nc(C)cc(N)c3c2)cc1.Cl	Population Healthy Nuclei (%)	%	43
CC(C)Oc1ccccc1C(=O)Nc1ccccc1C(=O)Nc1cccc(S(=O)(=O)C(F)(F)F)c1	Population Healthy Nuclei (%)	%	38
CN1CCN(Cc2ccc(Nc3ncc(Cl)c(Nc4ccccc4S(=O)(=O)N(C)C)n3)cc2)CC1 [DUBERMATINIB]	Population Healthy Nuclei (%)	%	49
CCCSc1nc(N[C@@H]2C[C@H]2c2ccc(F)c(F)c2)c2nnn([C@@H]3C[C@H](OCCO)[C@@H](O)[C@H]3O)c2n1 [TICAGRELOR]	Population Healthy Nuclei (%)	%	60

====

# reported Population Hoechst High Intensity Objects (%); entries follow
Test system: HEK-293T
Assay: Multiplex assay against HEK293T
Format: toxicity, cell-based
Details: human, 12 h, 1 µM, compound concentration 1 uM, replicate 1
value-type: Population Hoechst High Intensity Objects (%)

compound	display-unit	assay-value
CC1=C(C(=O)Nc2cc3cn[nH]c3cc2F)C(c2ccc(C(F)(F)F)cc2)CC(=O)N1 (stereo unspecified)	%	7
CC(C)Oc1ccccc1C(=O)Nc1ccccc1C(=O)Nc1cccc(S(=O)(=O)C(F)(F)F)c1	%	14
Cc1cccc(CN2CCN(C(c3ccccc3)c3ccc(Cl)cc3)CC2)c1.Cl.Cl (stereo unspecified)	%	19
CCc1ccc(OCc2ccccc2C(=O)Nc2ccc3nc(C)cc(N)c3c2)cc1.Cl	%	18
CN1CCN(Cc2ccc(Nc3ncc(Cl)c(Nc4ccccc4S(=O)(=O)N(C)C)n3)cc2)CC1	%	12
Cc1ccc2c(c1)c1c(n2CCc2ccc(C)nc2)CCN(C)C1 [LATREPIRDINE]	%	14

====

System: HEK-293T
Test: Multiplex assay against HEK293T
Assay type: toxicity, cell-based
Conditions: human, 12 h, 10 µM, compound concentration 10 uM, replicate 2
Rule: Population Hoechst High Intensity Objects (%) under 4% gives Not fulfilled, otherwise Fulfilled.

molecule	answer-label
COC(=O)C1=C(C)NC(C)=C(C(=O)OCCCN2CCC(c3ccccc3)(c3ccccc3)CC2)[C@H]1c1cccc([N+](=O)[O-])c1	Fulfilled
C=CC(=O)Nc1cccc(Sc2nc(Nc3ccc(N4CCN(C)CC4)cc3)ncc2Cl)c1	Not fulfilled
Cc1c[nH]c2nccc(Oc3c(F)cc(Nc4cc(Cl)nc(N)n4)cc3F)c12	Not fulfilled
C=CC(=O)Nc1cccc(Oc2nc(Nc3ccc(N4CCN(C)CC4)cc3OC)ncc2Cl)c1	Not fulfilled
CC(C)OC(=O)N1CCC(Oc2ncnc3c2cnn3-c2ccc(S(C)(=O)=O)cc2F)CC1	Not fulfilled
O=c1cc(N2CCOCC2)oc2c(-c3cccc4c3sc3ccccc34)cccc12	Fulfilled
COc1cc(Nc2nccc(-c3cnn4nc(OC)ccc34)n2)cc(C(F)(F)F)c1	Fulfilled
O=c1[nH]c2ccccc2n1C1CCN(Cc2ccc(-c3[nH]c4cc5ncnc5cc4nc3-c3ccccc3)cc2)CC1	Fulfilled
Cl.O=C(O)c1cc(-c2ccc(C3CCNCC3)cc2)c2ccc(-c3ccc(C(F)(F)F)cc3)cc2c1	Fulfilled
Cc1nc(N2CC[C@H](O)C2)ncc1-c1cc(C(F)(F)F)cc2[nH]ncc12	Not fulfilled
CC(C)c1noc(N2CCC(COc3ccc(-c4ccc(S(C)(=O)=O)cc4)nc3)CC2)n1	Fulfilled
CC(C)NC(=O)N1CC[C@H](NC2=Nc3cc(F)ccc3N(CC(F)F)c3ccc(Cl)cc32)C1	Fulfilled
CC(C)CC(=O)Nc1[nH]nc2c1CN(C(=O)C1CCN(C)CC1)C2(C)C	Fulfilled
CCc1nn(CCCN2CCN(c3cccc(Cl)c3)CC2)c(=O)n1CCOc1ccccc1.Cl [NEFAZODONE HYDROCHLORIDE]	Fulfilled
CNC(=O)Nc1ccc2c(c1)[C@@]1(CC2)OC(=O)N(CC(=O)N(Cc2ccc(F)cc2)[C@@H](C)C(F)(F)F)C1=O	Not fulfilled
CCc1ccc(OCc2ccccc2C(=O)Nc2ccc3nc(C)cc(N)c3c2)cc1.Cl	Fulfilled
CC(C)(C)NC[C@H](O)COc1nsnc1N1CCOCC1	Not fulfilled
CNC(=O)Nc1ccc(-c2nc(N3CC4CCC(C3)O4)c3cnn(C4CCC5(CC4)OCCO5)c3n2)cc1	Fulfilled
CCC1=C[C@@H]2C[N@](C1)Cc1c([nH]c3ccccc13)[C@@](C(=O)OC)(c1cc3c(cc1OC)N(C)[C@H]1[C@@](O)(C(=O)OC)[C@H](OC(C)=O)[C@]4(CC)C=CCN5CC[C@]31[C@@H]54)C2.O=C(O)C(O)C(O)C(=O)O.O=C(O)C(O)C(O)C(=O)O [VINORELBINE TARTRATE]	Not fulfilled
CC1=C(C(=O)Nc2cc3cn[nH]c3cc2F)C(c2ccc(C(F)(F)F)cc2)CC(=O)N1 (stereo unspecified)	Fulfilled
COc1ccc(-c2ccc3ncc4c(c3c2)n(-c2ccc(N3CCNCC3)c(C(F)(F)F)c2)c(=O)n4C)cn1.O=C(O)/C=C\C(=O)O	Fulfilled
C[C@]12CC[C@@H]3c4ccc(O)cc4CC[C@H]3[C@@H]1CC[C@@H]2O	Fulfilled
O=C(c1cc2c(cc1F)OC(c1ccc(F)cc1)(c1ccc(Cl)cc1Cl)O2)N1CCOCC1 (stereo unspecified)	Fulfilled
Cc1cccc(CN2CCN(C(c3ccccc3)c3ccc(Cl)cc3)CC2)c1.Cl.Cl (stereo unspecified)	Not fulfilled
